- Target Entity: human PAH with the R408W mutation (Homo sapiens, UniProt P00439, R408W)
- Construct: expressed in transfected cells
- Sequence (P00439 whole entry R408W): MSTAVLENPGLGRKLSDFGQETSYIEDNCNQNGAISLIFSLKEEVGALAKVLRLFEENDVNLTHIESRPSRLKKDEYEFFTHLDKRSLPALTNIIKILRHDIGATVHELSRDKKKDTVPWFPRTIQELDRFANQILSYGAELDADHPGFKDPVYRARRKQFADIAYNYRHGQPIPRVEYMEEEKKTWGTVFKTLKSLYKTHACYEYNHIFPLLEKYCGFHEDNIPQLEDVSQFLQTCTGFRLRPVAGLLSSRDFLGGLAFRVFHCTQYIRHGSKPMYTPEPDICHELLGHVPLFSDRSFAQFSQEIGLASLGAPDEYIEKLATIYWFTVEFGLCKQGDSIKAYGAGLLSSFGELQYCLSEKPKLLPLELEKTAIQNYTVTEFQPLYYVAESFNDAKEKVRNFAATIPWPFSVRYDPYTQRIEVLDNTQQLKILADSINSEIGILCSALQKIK
- Test Name: Cell Based Phenylalanine Flux Assay;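 also: after compound treatment, cells received sepiapterin plus isotope-labelled Phenylalanine for 4 hours, then labelled Tyrosine in the medium was quantified, 10-point 2-fold dilution series run in duplicate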
- Experimental Context: A375 cells expressing human R408W PAH; 24 hrs compound incubation; 13C-Tyrosine by LC-MS; average where tested multiple times; read-out: AC50
Quantity: AC50

Some compounds with known AC50 results, for comparison:
Compound | Target Entity | AC50
Cn1ccc(-c2nnc(C(=O)N3CCc4[nH]cnc4[C@H]3c3cc4cccc(F)n4n3)o2)n1 [Example 1456] | human PAH with the R408W mutation (Homo sapiens, UniProt P00439, R408W) | < 500 nM
Cn1nc(Cl)nc1C(=O)N1CCc2[nH]cnc2[C@H]1c1cc2c(Cl)cccn2n1 [Example 1054] | human PAH with the R408W mutation (Homo sapiens, UniProt P00439, R408W) | < 500 nM
O=C(c1ocnc1C(F)F)N1CCc2[nH]cnc2[C@@H]1c1cc2ccc(F)cn2n1 [Example 1069] | human PAH with the R408W mutation (Homo sapiens, UniProt P00439, R408W) | 1000 to 5000 nM
FC(F)c1cccn2nc([C@H]3c4nc[nH]c4CCN3c3ncccn3)cc12 [Example 1763] | human PAH with the R408W mutation (Homo sapiens, UniProt P00439, R408W) | 1000 to 5000 nM
Cc1c(-c2nnc(C(=O)N3CCc4[nH]cnc4[C@@H]3c3cc4cccc(C(F)(F)F)n4n3)o2)cnn1C [Example 1191] | human PAH with the R408W mutation (Homo sapiens, UniProt P00439, R408W) | 1000 to 5000 nM
O=C(c1nnc(-c2cnccn2)o1)N1CCc2[nH]cnc2[C@@H]1c1cc2cccc(Cl)n2n1 [Example 978] | human PAH with the R408W mutation (Homo sapiens, UniProt P00439, R408W) | 1000 to 5000 nM

Each of the following entries comes with a recorded value; kindly state AC50 for each.
1. Cc1cccc2cc([C@@H]3c4nc[nH]c4CCN3C(=O)c3nnc(C4CCC4)o3)nn12 [Example 1562]
2. C[C@H](O)c1nc(C(F)F)c(C(=O)N2CCc3[nH]cnc3[C@@H]2c2cc3cccc(C(F)(F)F)n3n2)o1 [Example 1201]
3. Cc1cccn2nc([C@@H]3c4nc[nH]c4CCN3C(=O)c3nnc(-c4ccc(F)cn4)o3)cc12 [Example 875]
4. O=C(c1nnc(-c2cnccn2)o1)N1CCc2[nH]cnc2[C@H]1c1cc2c(C(F)(F)F)cccn2n1 [Example 1300]

Key:
1. 500 to 1000 nM
2. 500 to 1000 nM
3. < 500 nM
4. < 500 nM

Each of the following entries comes with a recorded value; kindly state AC50 for each.
1. Cn1ccc(-c2ccc3c(C(=O)N4CCc5[nH]cnc5[C@@H]4c4cc5c(C(F)(F)F)cccn5n4)cnn3c2)n1 [Example 1597]
2. O=C(c1nnc(-c2ccn(C(F)F)n2)o1)N1CCc2[nH]cnc2[C@@H]1c1cc2cccc(C(F)(F)F)n2n1 [Example 1037]
3. Cc1cccn2nc([C@@H]3c4nc[nH]c4CCN3c3ncc(C(F)(F)F)cn3)cc12 [Example 1754]
4. Cn1cc(-c2nnc(C(=O)N3CCc4[nH]cnc4[C@H]3c3cc4ccccn4n3)o2)cn1 [Example 626]
5. Cc1cccn2nc([C@@H]3c4nc[nH]c4CCN3c3nnc(C(F)F)o3)cc12 [Example 1711]

Key:
> 5000 nM
> 5000 nM
< 500 nM
1000 to 5000 nM
500 to 1000 nM

Values from patent US20230365592A1
